Assay: Ichthyotoxicity against Carassius auratus
Assay type: organism-based
Conditions: in vivo
Assay Endpoint: LC50 (µg/mL)
Report only the number, with the unit µg/mL understood.

Query: Name the recorded LC50 for C=C(CCNC(=O)CC/C=C/C[C@H](CCCCCCC)OC)[C@@]12O[C@@H]1CC=C(C)C2=O [MALYNGAMIDE H] .
Response: 25
